Target: T1, COX14 peptide complexed with HLA-A*02:01 on T2 cells (human)
T1 construct: whole, on cells
Experiment: flow cytometry, peptide-loaded T2 cells;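 note: binding of single-chain Fv antibody constructs, raised in XenoMouse, to peptide-pulsed T2 cells measured by flow cytometry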
Consider the following binders and their measured Signal/background readings.
In your answer, state the number alone without any accompanying words.

{"columns": ["Binder", "Signal/background"],
 "data": [
  ["18181-F1 (scFv, scFv in bacterial lysate, detected with anti-Flag M2) scFv: EVQLLESGGGLVKPGGSLRLSCAASGFTFSNAWMSWVRQAPGKGLEWVGRIKGNTYGGTTDYAAPVKGRFTISRDDSKNTLFLQMNSLKTEDTAVYYCTTPSYSGSYYNYFSVMDVWGQGTTVTVSSGGGGSGGGGSGGGGSELVMTQSPSSLSASVGDRVTITCRTSQSISSYLNWYQQKPGRAPKLLIFAASSLQGGVPSRFSGSGSGTDFTLTISSLQPEDFATYYCQQTYSSPFTFGPGTKLEIK", 1.1],
  ["18182-G6 (scFv, scFv in bacterial lysate, detected with anti-Flag M2) scFv: EVQLLESGGGLVQPGGSLRLSCAASGFTFSSYAMSWVRQAPGKGLEWVSAISGSGGGTYYADSVKGRFTISRDNSKNTLYLQMNSLRAEDTAAYYCVTGKGVHLGFDYWGQGTLVTVSSGGGGSGGGGSGGGGSELVLTQPPSVSVAPGQTARITCGGNNIGSKSVHWHQQKPGQSPVLVIYDDNDRPSGIPERFSGFNSGNTATLTISRVEAGDEADYYCQVWDSSSDHVVFGGGTKLTVL", 1]
]}

Please turn your attention to the following entry.
[Q] Name the reported Signal/background value associated with the binder 18179-A7 (scFv, scFv in bacterial lysate, detected with anti-Flag M2) scFv: EVQLLESGGGLVKPGGSLRLSCAASGFTFSNAWMSWVRQAPGKGLEWVGRIKGNTYGGTTDYAAPVKGRFTISRDDSKNTLFLQMNSLKTEDTAVYYCTTPSYSGSYYNYFSVMDVWGQGTTVTVSSGGGGSGGGGSGGGGSELVMTQSPSSLSASVGDRVTITCRTSQSISSYLNWYQQKPGRAPKLLIFAASSLQGGVPSRFSGSGSGTDFTLTISSLQPEDFATYYCQQTYSMPFTFGPGTKVDIK
[A] 1
